Test system: Receptor tyrosine-protein kinase erbB-2 (Homo sapiens)
Sequence (P04626 whole entry): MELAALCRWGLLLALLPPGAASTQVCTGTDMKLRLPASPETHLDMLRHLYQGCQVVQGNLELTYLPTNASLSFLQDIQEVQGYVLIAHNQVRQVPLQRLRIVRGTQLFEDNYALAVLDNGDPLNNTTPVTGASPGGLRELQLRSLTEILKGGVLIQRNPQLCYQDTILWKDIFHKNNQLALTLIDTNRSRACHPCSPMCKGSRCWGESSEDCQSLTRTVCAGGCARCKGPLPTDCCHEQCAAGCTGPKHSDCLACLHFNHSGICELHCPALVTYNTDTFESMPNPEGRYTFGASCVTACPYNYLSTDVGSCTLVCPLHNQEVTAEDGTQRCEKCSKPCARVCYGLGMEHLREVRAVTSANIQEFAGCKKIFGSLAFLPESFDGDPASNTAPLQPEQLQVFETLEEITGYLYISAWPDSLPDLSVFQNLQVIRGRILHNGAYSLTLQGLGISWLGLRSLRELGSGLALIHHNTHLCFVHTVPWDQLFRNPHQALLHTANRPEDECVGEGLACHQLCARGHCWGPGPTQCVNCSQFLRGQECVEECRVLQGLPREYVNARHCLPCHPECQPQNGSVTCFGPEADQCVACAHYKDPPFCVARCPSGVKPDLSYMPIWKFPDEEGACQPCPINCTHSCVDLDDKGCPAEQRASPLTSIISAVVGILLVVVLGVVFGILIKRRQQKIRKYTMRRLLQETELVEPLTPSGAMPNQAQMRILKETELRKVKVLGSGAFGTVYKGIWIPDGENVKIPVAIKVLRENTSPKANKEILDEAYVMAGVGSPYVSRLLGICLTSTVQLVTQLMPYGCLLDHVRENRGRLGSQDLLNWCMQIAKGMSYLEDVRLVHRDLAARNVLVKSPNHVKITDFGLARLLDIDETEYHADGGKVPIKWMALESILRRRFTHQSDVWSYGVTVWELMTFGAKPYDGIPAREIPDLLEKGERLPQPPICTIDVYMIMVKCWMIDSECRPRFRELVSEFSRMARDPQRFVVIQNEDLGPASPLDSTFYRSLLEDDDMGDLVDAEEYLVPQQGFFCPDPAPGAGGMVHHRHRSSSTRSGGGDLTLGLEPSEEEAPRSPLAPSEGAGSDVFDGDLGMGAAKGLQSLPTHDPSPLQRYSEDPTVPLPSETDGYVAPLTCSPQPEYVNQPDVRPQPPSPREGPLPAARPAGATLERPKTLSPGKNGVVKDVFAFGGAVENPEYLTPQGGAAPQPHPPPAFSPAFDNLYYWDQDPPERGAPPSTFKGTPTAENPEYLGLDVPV
Readout kind: IC50

Query :: Fill in reported IC50 for this entry: `O=C(O)c1ccc(C(=O)/C(=C\c2ccc(F)c([N+](=O)[O-])c2)SCc2ccc(Br)cc2)cc1`
Result :: > 10 µM

----------
Would you mind telling me the reported GI50 of each entry?
System: DU-145
Test: Growth inhibition of human DU145 cells after 96 hrs by trypan blue exclusion assay
Type: functional
Assay context: DU-145, 96 h
Give bare numbers, in nM.

| Compound smiles | GI50, nM |
| --- | --- |
| COc1ccc(/C=C(/SCc2ccc(F)cc2)C(=O)c2ccc(Br)cc2)cc1O | 1000 |
| COc1ccc(/C=C(/SCc2ccc(Cl)cc2)C(=O)c2ccc(Br)cc2)cc1O | 1000 |
| COc1ccccc1/C=C(\C(=O)c1ccc([N+](=O)[O-])cc1)S(=O)(=O)Cc1ccc(Cl)cc1 | 10000 |

# batch size: 5; output GI50 per entry
1. Cc1ccc(C)c(/C=C(/SCc2ccc(Cl)cc2)C(=O)c2ccc(Cl)cc2)c1
2. O=C(/C(=C\c1ccc([N+](=O)[O-])c(O)c1)Sc1c(F)c(F)c(F)c(F)c1F)c1ccc(Br)cc1
3. O=C(O)c1ccc(C(=O)/C(=C\c2ccc(F)c([N+](=O)[O-])c2)SCc2ccc(Cl)cc2Cl)cc1
4. CSc1ccc(/C=C(\C(=O)c2ccc(Br)cc2)S(=O)(=O)c2ccc(C)cc2)cc1
5. CCOc1ccc(/C=C(\C(=O)c2ccc(Br)cc2)S(=O)(=O)c2ccc(C)cc2)cc1OC

Result ::
10000
10000
1000
1000
1000

----------
Assignment: determine reported GI50 for the given compounds.
System: DU-145
Test: Growth inhibition of human DU145 cells after 96 hrs by trypan blue exclusion assay
Assay type: functional
Assay context: DU-145, 96 h
Numbers only, in µM.

Solved entries:
| Compound smiles | GI50 / µM |
| --- | --- |
| O=C(/C(=C\c1ccc(F)cc1Cl)S(=O)(=O)c1ccc(Br)cc1)c1ccc(Br)cc1 | 50 |
| O=C(/C(=C\c1ccc(O)c([N+](=O)[O-])c1)SCc1ccc(Br)cc1)c1ccc(C(F)(F)F)cc1 | 10 |

# return GI50 for each item in the list
1. COc1ccc(/C=C(/SCc2ccc(Cl)cc2)C(=O)c2ccc(C(=O)O)cc2)cc1
2. O=C(/C(=C\c1ccc(O)cc1O)Sc1ccc(Br)cc1)c1ccc(Cl)cc1
3. Cc1ccc(CS/C(=C/c2ccc(O)cc2)C(=O)c2ccc(Cl)cc2)cc1
4. O=C(/C(=C\c1c(O)cc(O)cc1O)S(=O)(=O)c1ccccc1Br)c1ccc(Br)cc1
5. CC(=O)c1ccc(/C=C(/Sc2ccc(C)cc2)C(=O)c2ccc(Br)cc2)cc1

Result ::
[10, 50, 10, 50, 50]

Query :: Kindly indicate its recorded GI50. Item: `O=C(/C(=C\c1cc(Br)c(O)c(Br)c1)SCc1ccc(Br)cc1)c1ccc(Br)cc1`
Result :: 1

----------
System: DU-145
Test: Growth inhibition of human DU145 cells after 96 hrs by trypan blue exclusion assay
Format: functional
Assay context: DU-145, 96 h
Readout kind: GI50
Express the reported value numerically, then name its unit.

Some entries whose results are on file:
| Compound smiles | GI50 |
| --- | --- |
| Cc1ccc(S/C(=C/c2c(F)c(F)c(F)c(F)c2F)C(=O)c2ccc(Cl)cc2)cc1 | 25 µM |
| COc1ccc(/C=C(\C(=O)c2ccc(Br)cc2)S(=O)(=O)c2ccc(Br)cc2)c(F)c1 | 10 µM |
| COc1ccc(/C=C(/Sc2ccc(Br)cc2)C(=O)c2ccc(Br)cc2)cc1 | 25 µM |

# batch size: 6; output GI50 per entry
1. O=C(/C(=C\c1ccc(Br)c([N+](=O)[O-])c1)S(=O)(=O)c1ccc(Br)cc1)c1ccc(Br)cc1
2. Cc1ccc(/C=C(/SCc2ccc(Cl)cc2)C(=O)c2ccc(Cl)cc2)s1
3. COc1ccc(S(=O)(=O)/C(=C/c2ccccc2OCc2ccccc2)C(=O)c2ccc(Cl)cc2)cc1
4. Cc1ccc(C)c(/C=C(/Sc2ccc(Br)cc2)C(=O)c2ccc(Cl)cc2)c1
5. Cc1ccc(CS/C(=C/c2c(O)cc(O)cc2O)C(=O)c2ccc(Cl)cc2)cc1
6. COc1ccccc1/C=C(\C(=O)c1ccc(Cl)cc1)S(=O)(=O)Cc1ccc(Cl)cc1

Result ::
["10 µM", "50 µM", "1 µM", "10 µM", "50 µM", "25 µM"]

----------
What solubility was measured for each of the following?
Test: Aqueous solubility of the compound
Assay type: physicochemical
Assay context: buffer

| Compound smiles | Result |
| --- | --- |
| O=C(O)c1ccc(C(=O)/C(=C\c2ccc(Br)c([N+](=O)[O-])c2)SCc2ccc(Cl)cc2Cl)cc1 | < 1000 µg/mL |

Provide solubility for all items below, preserving their order.
1. O=C(O)c1ccc(C(=O)/C(=C\c2ccc(F)c([N+](=O)[O-])c2)S(=O)(=O)Cc2ccc(Br)cc2)cc1
2. O=C(/C(=C\c1ccc(F)c([N+](=O)[O-])c1)SCc1ccc(Br)cc1)c1ccc(C(=O)N2CCN(CCO)CC2)cc1
3. O=C(O)c1ccc(C(=O)/C(=C\c2ccc(Cl)c([N+](=O)[O-])c2)SCc2ccc(Cl)cc2Cl)cc1
4. O=C(O)c1ccc(C(=O)/C(=C\c2ccc(Cl)c([N+](=O)[O-])c2)SCc2ccc(Cl)cc2)cc1
5. CN1CCN(CCNC(=O)c2ccc(C(=O)/C(=C\c3ccc(F)c([N+](=O)[O-])c3)SCc3ccc(Br)cc3)cc2)CC1

Result ::
1: < 1000 µg/mL; 2: > 10000 µg/mL; 3: < 1000 µg/mL; 4: < 1000 µg/mL; 5: > 10000 µg/mL

----------
System: DU-145
Test: Growth inhibition of human DU145 cells after 96 hrs by trypan blue exclusion assay
Assay type: functional
Assay context: DU-145, 96 h
Readout kind: GI50 (µM)
Give bare numbers, in µM.

Would you please look over these solved cases?
| Compound smiles | Unit label | GI50 |
| --- | --- | --- |
| Cc1ccc(/C=C(/SCc2ccc(Cl)cc2)C(=O)c2ccc([N+](=O)[O-])cc2)s1 | µM | 25 |
| O=C(/C(=C\c1ccc(O)c([N+](=O)[O-])c1)SCc1ccc(Br)cc1)c1ccc(Br)cc1 | µM | 10 |
| O=C(/C(=C\c1ccc(Br)cc1)Sc1ccc(Br)cc1)c1ccc(Br)cc1 | µM | 1 |
| O=C(/C(=C\c1ccccc1OCc1ccccc1)SCc1ccc(F)cc1)c1ccc(Br)cc1 | µM | 1 |
| O=C(/C(=C\c1ccc(Br)cc1)SCc1ccc(F)cc1)c1ccc(Cl)cc1 | µM | 9 |

I'm hoping you can list GI50 for every compound here, please.
1. Cc1ccc(CS/C(=C/c2ccc(Cl)c([N+](=O)[O-])c2)C(=O)c2ccc(C(=O)O)cc2)cc1
2. Cc1cc(F)ccc1/C=C(/SCc1ccc(F)cc1)C(=O)c1ccc(Br)cc1
3. O=C(/C(=C\c1ccccc1OCc1ccccc1)S(=O)(=O)Cc1ccc(F)cc1)c1ccc(Cl)cc1
4. O=C(/C(=C\c1ccc(O)c([N+](=O)[O-])c1)SCc1ccc(Br)cc1)c1ccc(Cl)cc1Cl

Result ::
1: 1; 2: 10; 3: 10; 4: 10

----------
Tested on: DU-145
Test: Growth inhibition of human DU145 cells after 96 hrs by trypan blue exclusion assay
Format: functional
Assay context: DU-145, 96 h
For each record, write down the corresponding GI50.
Give bare numbers, in µM.

# batch size: 3; output GI50 per entry
1. O=C(/C(=C\c1c(O)cc(O)cc1O)SCc1ccc(Cl)cc1Cl)c1ccc(Cl)cc1
2. COc1ccc2[nH]cc(/C=C(/Sc3ccc(Br)cc3)C(=O)c3ccc(Br)cc3)c2c1
3. Cc1ccc(CS/C(=C/c2cc(C)ccc2C)C(=O)c2ccc(Cl)cc2)cc1

Result ::
1. 25
2. 10
3. 10

Hey, can you go through the list below and give me GI50 for every item?
1. O=C(/C(=C\c1ccc(O)c([N+](=O)[O-])c1)S(=O)(=O)Cc1ccc(Br)cc1)c1c(F)c(F)c(F)c(F)c1F
2. Cc1ccc(S(=O)(=O)/C(=C/c2ccc(O)c([N+](=O)[O-])c2)C(=O)c2ccc(Cl)cc2)cc1
3. COc1cc(C(=O)/C(=C\c2ccc(O)c([N+](=O)[O-])c2)SCc2ccc(Br)cc2)cc(OC)c1OC
4. O=C(/C(=C\c1cc(Cl)cc(Cl)c1Cl)S(=O)(=O)Cc1ccc(Cl)cc1)c1ccc(Br)cc1
5. O=C(/C(=C\c1ccc(OC(F)(F)F)cc1)Sc1ccc(Br)cc1)c1ccc(Br)cc1

Result ::
1: 50; 2: 25; 3: 1; 4: 1; 5: 10

Query :: Read off the recorded GI50 for `O=C(/C(=C\c1ccc[nH]1)SCc1ccc(Cl)cc1)c1ccc(Cl)cc1`
Result :: 10

Values compiled from ChEMBL document CHEMBL1240409.
